The following compounds are listed with their measured relative viability values.
system: NCI-H2342; assay: relative viability (nuclei count vs DMSO), 5 days (fraction); higher = more cells survive; conditions: first compound 500 µM
measure: relative viability

1. O=C(O)CCCCC(CCSCc1ccccc1)SCc1ccccc1 (centres undefined) [CPI-613] + COc1cc2c(Oc3ccc(NC(=O)C4(C(=O)Nc5ccc(F)cc5)CC4)cc3F)ccnc2cc1OCCCN1CCOCC1 [Foretinib] (partner 0.25 µM) :: 1.05
2. O=C(O)CCCCC(CCSCc1ccccc1)SCc1ccccc1 (centres undefined) [CPI-613] + Nc1ncn([C@H]2C[C@H](O)[C@@H](CO)O2)c(=O)n1 [Decitabine] (partner 2 µM) :: 0.779
3. O=C(O)CCCCC(CCSCc1ccccc1)SCc1ccccc1 (centres undefined) [CPI-613] + NC(=O)Nc1cc(-c2cccc(F)c2)sc1C(=O)N[C@H]1CCCNC1 [AZD7762] (partner 0.2 µM) :: 0.576
4. O=C(O)CCCCC(CCSCc1ccccc1)SCc1ccccc1 (centres undefined) [CPI-613] + CC(=O)Nc1cccc(-n2c(=O)n(C3CC3)c(=O)c3c(Nc4ccc(I)cc4F)n(C)c(=O)c(C)c32)c1 [Trametinib] (partner 0.02 µM) :: 0.955

###

test system: NCI-H1734; experiment: relative viability (nuclei count vs DMSO), 5 days (fraction); higher = more cells survive; details: first compound 0.005 µM
measure: relative viability

1. COc1cc2nccc(Oc3ccc(NC(=O)Nc4cc(C)on4)c(Cl)c3)c2cc1OC [Tivozanib] + Nc1nc2[nH]cc(CCc3ccc(C(=O)N[C@@H](CCC(=O)O)C(=O)O)cc3)c2c(=O)[nH]1 [Pemetrexed] (partner 0.2 µM) :: 0.426
2. COc1cc2nccc(Oc3ccc(NC(=O)Nc4cc(C)on4)c(Cl)c3)c2cc1OC [Tivozanib] + O=C(c1cc(Cc2n[nH]c(=O)c3ccccc23)ccc1F)N1CCN(C(=O)C2CC2)CC1 [Olaparib] (partner 8 µM) :: 0.716
3. COc1cc2nccc(Oc3ccc(NC(=O)Nc4cc(C)on4)c(Cl)c3)c2cc1OC [Tivozanib] + CC(=O)Nc1cccc(-n2c(=O)n(C3CC3)c(=O)c3c(Nc4ccc(I)cc4F)n(C)c(=O)c(C)c32)c1 [Trametinib] (partner 0.02 µM) :: 0.645
4. Nc1ccn([C@@H]2O[C@H](CO)[C@@H](O)[C@@H]2O)c(=O)n1 [Cytarabine] + CS(=O)(=O)N1CCN(Cc2cc3nc(-c4cccc5[nH]ncc45)nc(N4CCOCC4)c3s2)CC1 [Pictilisib] (partner 1 µM) :: 0.365

###

tested on: NCI-H2087; test: relative viability (nuclei count vs DMSO), 5 days (fraction); higher = more cells survive; settings: first compound 0.000632 µM
The following compounds are listed with their measured relative viability values.
measure: relative viability

1. CC(=O)O[C@@]12CO[C@@H]1C[C@H](O)[C@@]1(C)C(=O)[C@H](O)C3=C(C)[C@@H](OC(=O)[C@H](O)[C@@H](NC(=O)OC(C)(C)C)c4ccccc4)C[C@@](O)([C@@H](OC(=O)c4ccccc4)[C@H]21)C3(C)C [Docetaxel] + Cc1nc(Nc2ncc(C(=O)Nc3c(C)cccc3Cl)s2)cc(N2CCN(CCO)CC2)n1 [Dasatinib] (partner 0.075 µM) :: 0.371
2. CC(=O)O[C@@]12CO[C@@H]1C[C@H](O)[C@@]1(C)C(=O)[C@H](O)C3=C(C)[C@@H](OC(=O)[C@H](O)[C@@H](NC(=O)OC(C)(C)C)c4ccccc4)C[C@@](O)([C@@H](OC(=O)c4ccccc4)[C@H]21)C3(C)C [Docetaxel] + O=C(CCCCCCC(=O)Nc1ccccc1)NO [Vorinostat] (partner 1 µM) :: 0.203
3. CC(=O)O[C@@]12CO[C@@H]1C[C@H](O)[C@@]1(C)C(=O)[C@H](O)C3=C(C)[C@@H](OC(=O)[C@H](O)[C@@H](NC(=O)OC(C)(C)C)c4ccccc4)C[C@@](O)([C@@H](OC(=O)c4ccccc4)[C@H]21)C3(C)C [Docetaxel] + NC(=O)Nc1cc(-c2cccc(F)c2)sc1C(=O)N[C@H]1CCCNC1 [AZD7762] (partner 0.2 µM) :: 0.822
4. CC(=O)O[C@@]12CO[C@@H]1C[C@H](O)[C@@]1(C)C(=O)[C@H](O)C3=C(C)[C@@H](OC(=O)[C@H](O)[C@@H](NC(=O)OC(C)(C)C)c4ccccc4)C[C@@](O)([C@@H](OC(=O)c4ccccc4)[C@H]21)C3(C)C [Docetaxel] + C[C@@H](Oc1cc(-c2cnn(C3CCNCC3)c2)cnc1N)c1c(Cl)ccc(F)c1Cl [Crizotinib] (partner 1 µM) :: 0.684

###

test system: NCI-H2126; experiment: relative viability (nuclei count vs DMSO), 5 days (fraction); higher = more cells survive; conditions: first compound 1.265 µM
Response field label: string, one of fulfilled (relative viability strictly below 0.4) or not fulfilled.

1. Cc1sc2c(c1C)C(c1ccc(Cl)cc1)=N[C@@H](CC(=O)OC(C)(C)C)c1nnc(C)n1-2 [JQ1] + O=C(CCCCCCC(=O)Nc1ccccc1)NO [Vorinostat] (partner 1 µM) :: fulfilled
2. Cc1sc2c(c1C)C(c1ccc(Cl)cc1)=N[C@@H](CC(=O)OC(C)(C)C)c1nnc(C)n1-2 [JQ1] + Cc1cc(Nc2cc(N3CCN(C)CC3)nc(Sc3ccc(NC(=O)C4CC4)cc3)n2)n[nH]1 [Tozasertib] (partner 0.1 µM) :: not fulfilled
3. Cc1sc2c(c1C)C(c1ccc(Cl)cc1)=N[C@@H](CC(=O)OC(C)(C)C)c1nnc(C)n1-2 [JQ1] + CC(=O)c1c(C)c2cnc(Nc3ccc(N4CCNCC4)cn3)nc2n(C2CCCC2)c1=O [Palbociclib] (partner 0.5 µM) :: fulfilled
4. Cc1sc2c(c1C)C(c1ccc(Cl)cc1)=N[C@@H](CC(=O)OC(C)(C)C)c1nnc(C)n1-2 [JQ1] + CC(C)C[C@H](NC(=O)[C@H](Cc1ccccc1)NC(=O)c1cnccn1)B(O)O [Bortezomib] (partner 0.002 µM) :: not fulfilled
5. Cc1sc2c(c1C)C(c1ccc(Cl)cc1)=N[C@@H](CC(=O)OC(C)(C)C)c1nnc(C)n1-2 [JQ1] + Cc1nc(NC(=O)N2CCC[C@H]2C(N)=O)sc1-c1ccnc(C(C)(C)C(F)(F)F)c1 [Alpelisib] (partner 2 µM) :: not fulfilled
6. Cc1sc2c(c1C)C(c1ccc(Cl)cc1)=N[C@@H](CC(=O)OC(C)(C)C)c1nnc(C)n1-2 [JQ1] + C[C@]1(O)C[C@@H](c2nc(-c3ccc4ccc(-c5ccccc5)nc4c3)c3c(N)nccn32)C1 [Linsitinib] (partner 1 µM) :: not fulfilled
7. Cc1sc2c(c1C)C(c1ccc(Cl)cc1)=N[C@@H](CC(=O)OC(C)(C)C)c1nnc(C)n1-2 [JQ1] + Nc1nc2[nH]cc(CCc3ccc(C(=O)N[C@@H](CCC(=O)O)C(=O)O)cc3)c2c(=O)[nH]1 [Pemetrexed] (partner 0.2 µM) :: not fulfilled
8. Cc1sc2c(c1C)C(c1ccc(Cl)cc1)=N[C@@H](CC(=O)OC(C)(C)C)c1nnc(C)n1-2 [JQ1] + CS(=O)(=O)N1CCN(Cc2cc3nc(-c4cccc5[nH]ncc45)nc(N4CCOCC4)c3s2)CC1 [Pictilisib] (partner 1 µM) :: fulfilled

###

The following molecules are listed with their measured relative viability values.
system: NCI-H1355; experiment: relative viability (nuclei count vs DMSO), 5 days (fraction); higher = more cells survive; conditions: first compound 0.006325 µM
measure: relative viability

1) CC(=O)O[C@@]12CO[C@@H]1C[C@H](O)[C@@]1(C)C(=O)[C@H](O)C3=C(C)[C@@H](OC(=O)[C@H](O)[C@@H](NC(=O)OC(C)(C)C)c4ccccc4)C[C@@](O)([C@@H](OC(=O)c4ccccc4)[C@H]21)C3(C)C [Docetaxel] + CS(=O)(=O)CCNCc1ccc(-c2ccc3ncnc(Nc4ccc(OCc5cccc(F)c5)c(Cl)c4)c3c2)o1 [Lapatinib] (partner 2 µM) :: 0.289
2) CC(=O)O[C@@]12CO[C@@H]1C[C@H](O)[C@@]1(C)C(=O)[C@H](O)C3=C(C)[C@@H](OC(=O)[C@H](O)[C@@H](NC(=O)OC(C)(C)C)c4ccccc4)C[C@@](O)([C@@H](OC(=O)c4ccccc4)[C@H]21)C3(C)C [Docetaxel] + Cc1cc(Nc2cc(N3CCN(C)CC3)nc(Sc3ccc(NC(=O)C4CC4)cc3)n2)n[nH]1 [Tozasertib] (partner 0.1 µM) :: 0.263
3) CC(=O)O[C@@]12CO[C@@H]1C[C@H](O)[C@@]1(C)C(=O)[C@H](O)C3=C(C)[C@@H](OC(=O)[C@H](O)[C@@H](NC(=O)OC(C)(C)C)c4ccccc4)C[C@@](O)([C@@H](OC(=O)c4ccccc4)[C@H]21)C3(C)C [Docetaxel] + Cc1nc(NC(=O)N2CCC[C@H]2C(N)=O)sc1-c1ccnc(C(C)(C)C(F)(F)F)c1 [Alpelisib] (partner 2 µM) :: 0.313
4) CC(=O)O[C@@]12CO[C@@H]1C[C@H](O)[C@@]1(C)C(=O)[C@H](O)C3=C(C)[C@@H](OC(=O)[C@H](O)[C@@H](NC(=O)OC(C)(C)C)c4ccccc4)C[C@@](O)([C@@H](OC(=O)c4ccccc4)[C@H]21)C3(C)C [Docetaxel] + Nc1nc2[nH]cc(CCc3ccc(C(=O)N[C@@H](CCC(=O)O)C(=O)O)cc3)c2c(=O)[nH]1 [Pemetrexed] (partner 0.2 µM) :: 0.309
5) CC(=O)O[C@@]12CO[C@@H]1C[C@H](O)[C@@]1(C)C(=O)[C@H](O)C3=C(C)[C@@H](OC(=O)[C@H](O)[C@@H](NC(=O)OC(C)(C)C)c4ccccc4)C[C@@](O)([C@@H](OC(=O)c4ccccc4)[C@H]21)C3(C)C [Docetaxel] + CS(=O)(=O)N1CCN(Cc2cc3nc(-c4cccc5[nH]ncc45)nc(N4CCOCC4)c3s2)CC1 [Pictilisib] (partner 1 µM) :: 0.224
6) CC(=O)O[C@@]12CO[C@@H]1C[C@H](O)[C@@]1(C)C(=O)[C@H](O)C3=C(C)[C@@H](OC(=O)[C@H](O)[C@@H](NC(=O)OC(C)(C)C)c4ccccc4)C[C@@](O)([C@@H](OC(=O)c4ccccc4)[C@H]21)C3(C)C [Docetaxel] + N=C(N)NC(=N)NCCc1ccccc1 [Phenformin] (partner 250 µM) :: 0.287
